All figures here come from paper PMC11191095.

- Assay overview: RP-HPLC ElutionTime as indicator of hydrophobicity
- Type: physicochemical
- Test settings: indicator of overall hydrophobicity; semipreparative RP-HPLC, Waters SymmetryPrep C8, water/ACN gradient with 0.1% TFA, 8 mL/min, 25 °C, 254 nm
Where a SMILES comes first, the peptide text is derived from it.
Measured property: ElutionTime (RP-HPLC retention time of major fraction)

>  <Compound>
CC(C)[C@H](NC(=O)[C@H](CS)NC(=O)[C@@H](N)CCCNC(=N)N)C(=O)N[C@@H](CS)C(=O)N[C@H](C(=O)N[C@@H](CCCNC(=N)N)C(=O)NCC(=O)N[C@@H](Cc1ccccc1)C(=O)N[C@@H](CS)C(=O)O)[C@@H](C)O [ThetaDefA] (H-RCVCTRGFC-OH; N-terminus and C-terminus assumed)

>  <Experimental value>
22 min

$$$$

* * *

- Tested on: C. auris TDG 1912
- Assay overview: microbe, parasite or virus in culture
- Format: cell-based, Candida auris
- Test settings: C. auris TDG 1912; shown in µM
- Procedure: […] The 46 peptides were serially diluted (128 to 2 μg/mL) in media down polypropylene 96-well plates. […] Plates were incubated at 37 °C for 20 h, and the optical density was determined spectrophotometrically at 600 nm. Minimum inhibition concentrations (MICs) were determined from a minimum of three biological repeats and are reported in μg/mL as well as μM. […]
Where a SMILES comes first, the peptide text is derived from it.

>  <Compound>
CC[C@H](C)[C@H](NC(=O)[C@H](C)NC(=O)[C@H](CCCCN)NC(=O)[C@@H]1CCCN1C(=O)[C@@H](NC(=O)[C@H](CC(C)C)NC(=O)[C@H](CCCCN)NC(=O)[C@H](Cc1ccccc1)NC(=O)[C@H](CC(C)C)NC(=O)[C@@H](N)Cc1ccccc1)[C@@H](C)CC)C(=O)N[C@@H](CCCCN)C(=O)N[C@@H](CCCCN)C(=O)N[C@@H](CC(C)C)C(=O)N[C@H](C(=O)N[C@@H](CO)C(=O)N[C@@H](CCCCN)C(=O)N[C@@H](Cc1ccccc1)C(=O)N[C@@H](CCCCN)C(N)=O)[C@@H](C)CC [AamAP1-Lysa] (H-FLFKLIPKAIKKLISKFK-NH2)

>  <Modal MIC90>
> 57.8 µM

$$$$
>  <Compound>
CC[C@H](C)[C@H](NC(=O)[C@@H](N)Cc1c[nH]c2ccccc12)C(=O)N[C@@H](CCCCN)C(=O)N[C@@H](CO)C(=O)N[C@H](C(=O)N[C@@H](C)C(=O)N[C@@H](CCCCN)C(=O)N[C@@H](CCCCN)C(N)=O)[C@@H](C)O [Opis8a] (H-WIKSTAKK-NH2)

>  <Modal MIC90>
> 133.2 µM

$$$$
>  <Compound>
CC[C@H](C)[C@H](N)C(=O)N[C@@H](CC(C)C)C(=O)NCC(=O)N[C@@H](CCCCN)C(=O)N[C@H](C(=O)N[C@@H](Cc1c[nH]c2ccccc12)C(=O)N[C@@H](CCCCN)C(=O)N1CCC[C@H]1C(=O)N[C@H](C(=O)N[C@@H](CCCCN)C(=O)N[C@@H](CCCCN)C(=O)N[C@@H](CC(C)C)C(=O)N[C@@H](Cc1ccccc1)C(N)=O)[C@@H](C)CC)[C@@H](C)CC [K7P8K11-IsCTa] (H-ILGKIWKPIKKLF-NH2)

>  <Modal MIC90>
> 79 µM

$$$$

* * *

Here, each record is paired with measured Modal MIC50 data.
- Tested on: C. glabrata NCPF 8018
- Assay overview: microbe, parasite or virus in culture
- Assay type: cell-based
- Test settings: C. glabrata NCPF 8018; 50% growth inhibition; RPMI 1640 + 2% glucose, 37 °C, 20 h
- Method: […] The 46 peptides were serially diluted (128 to 2 μg/mL) in media down polypropylene 96-well plates. […] Plates were incubated at 37 °C for 20 h, and the optical density was determined spectrophotometrically at 600 nm. Minimum inhibition concentrations (MICs) were determined from a minimum of three biological repeats and are reported in μg/mL as well as μM. […]
Where a SMILES comes first, the peptide text is derived from it.

>  <Compound>
CC[C@H](C)[C@H](NC(=O)[C@@H](N)Cc1c[nH]c2ccccc12)C(=O)N[C@@H](CCCCN)C(=O)N[C@@H](CO)C(=O)N[C@H](C(=O)N[C@@H](C)C(=O)N[C@@H](CCCCN)C(=O)N[C@@H](CCCCN)C(N)=O)[C@@H](C)O [Opis8a] (H-WIKSTAKK-NH2)

>  <Target system>
C. glabrata NCPF 8018

>  <Modal MIC50>
> 128 µg/mL

$$$$
>  <Compound>
CC[C@H](C)[C@H](NC(=O)[C@H](CCCCN)NC(=O)[C@H](CC(C)C)NC(=O)[C@H](C)NC(=O)[C@H](C)NC(=O)[C@H](CCCCN)NC(=O)[C@H](CC(C)C)NC(=O)[C@H](C)NC(=O)[C@@H](N)CCCCN)C(=O)NCC(=O)N[C@@H](C)C(=O)N[C@@H](CC(N)=O)C(N)=O [CPF-P3-12a] (H-KALKAALKIGAN-NH2)

>  <Target system>
C. glabrata NCPF 8018

>  <Modal MIC50>
> 128 µg/mL

$$$$
>  <Compound>
CC[C@H](C)[C@H](NC(=O)[C@H](C)NC(=O)[C@H](CCCCN)NC(=O)[C@@H]1CCCN1C(=O)[C@@H](NC(=O)[C@H](CC(C)C)NC(=O)[C@H](CO)NC(=O)[C@H](Cc1ccccc1)NC(=O)[C@H](CC(C)C)NC(=O)[C@@H](N)Cc1ccccc1)[C@@H](C)CC)C(=O)NCC(=O)NCC(=O)N[C@@H](CC(C)C)C(=O)N[C@H](C(=O)N[C@@H](CO)C(=O)N[C@@H](C)C(=O)N[C@@H](Cc1ccccc1)C(=O)N[C@@H](CCCCN)C(N)=O)[C@@H](C)CC [AamAP-S1a]

>  <Target system>
C. glabrata NCPF 8018

>  <Modal MIC50>
> 128 µg/mL

$$$$
>  <Compound>
CC(C)[C@H](NC(=O)CNC(=O)[C@H](CCCNC(=N)N)NC(=O)[C@@H](N)CCCNC(=N)N)C(=O)N[C@@H](CS)C(=O)N[C@@H](CCCNC(=N)N)C(=O)N[C@@H](CS)C(=O)N[C@H](C(=O)N[C@@H](CS)C(=O)N[C@@H](CCCNC(=N)N)C(=O)N[C@@H](CCCNC(=N)N)C(N)=O)C(C)C [BTD11a] (H-RRGVCRCVCRR-NH2; N-terminus assumed)

>  <Target system>
C. glabrata NCPF 8018

>  <Modal MIC50>
16 µg/mL

$$$$
>  <Compound>
CC(C)[C@H](NC(=O)CNC(=O)[C@H](CCCNC(=N)N)NC(=O)[C@H](CCCNC(=N)N)NC(=O)[C@H](CS)NC(=O)[C@@H](NC(=O)[C@H](CS)NC(=O)[C@@H](N)CCCNC(=N)N)C(C)C)C(=O)N[C@@H](CS)C(=O)N[C@@H](CCCNC(=N)N)C(=O)N[C@@H](CS)C(=O)N[C@H](C(=O)N[C@@H](CS)C(=O)N[C@@H](CCCNC(=N)N)C(=O)N[C@@H](CCCNC(=N)N)C(N)=O)C(C)C [BTD15a] (H-RCVCRRGVCRCVCRR-NH2; N-terminus assumed)

>  <Target system>
C. glabrata NCPF 8018

>  <Modal MIC50>
128 µg/mL

$$$$
>  <Compound>
CC[C@H](C)[C@H](NC(=O)[C@H](C)NC(=O)CNC(=O)[C@H](C)NC(=O)[C@H](CCCCN)NC(=O)[C@H](CO)NC(=O)[C@H](C)NC(=O)[C@H](CCSC)NC(=O)CN)C(=O)N[C@@H](C)C(=O)NCC(=O)N[C@@H](CCCCN)C(=O)N[C@H](C(=O)N[C@@H](C)C(=O)N[C@@H](CCCCN)C(=O)N[C@H](C(=O)N[C@@H](C)C(=O)N[C@@H](CC(C)C)C(=O)N[C@@H](CCCCN)C(=O)N[C@@H](C)C(=O)N[C@@H](CC(C)C)C(N)=O)C(C)C)[C@@H](C)CC [DRAMP02272a] (H-GMASKAGAIAGKIAKVALKAL-NH2)

>  <Target system>
C. glabrata NCPF 8018

>  <Modal MIC50>
> 128 µg/mL

$$$$
>  <Compound>
CC(C)C[C@H](NC(=O)[C@H](CCCCN)NC(=O)[C@H](CCCCN)NC(=O)[C@H](C)NC(=O)[C@H](CC(C)C)NC(=O)[C@H](CCCCN)NC(=O)[C@H](CO)NC(=O)[C@H](CCCCN)NC(=O)[C@H](Cc1c[nH]c2ccccc12)NC(=O)[C@H](C)NC(=O)[C@H](CCCCN)NC(=O)[C@H](CCCCN)NC(=O)[C@H](CC(C)C)NC(=O)[C@H](Cc1ccccc1)NC(=O)[C@H](CO)NC(=O)CN)C(N)=O [PS-PB-16a] (H-GSFLKKAWKSKLAKKL-NH2)

>  <Target system>
C. glabrata NCPF 8018

>  <Modal MIC50>
> 128 µg/mL

$$$$
>  <Compound>
CC(C)C[C@H](NC(=O)[C@H](CCCCN)NC(=O)[C@H](CO)NC(=O)[C@H](CCCCN)NC(=O)[C@@H](N)Cc1c[nH]c2ccccc12)C(=O)N[C@@H](C)C(=O)N[C@@H](CCCCN)C(=O)N[C@@H](CCCCN)C(N)=O [PS-PB-8a] (H-WKSKLAKK-NH2)

>  <Target system>
C. glabrata NCPF 8018

>  <Modal MIC50>
> 128 µg/mL

$$$$
>  <Compound>
CC[C@H](C)[C@H](NC(=O)[C@H](CCCCN)NC(=O)[C@H](CC(C)C)NC(=O)[C@H](C)NC(=O)[C@H](C)NC(=O)[C@H](CCCCN)NC(=O)[C@H](CC(C)C)NC(=O)[C@H](C)NC(=O)[C@@H](N)CCCCN)C(=O)NCC(N)=O [CPF-P3-10a] (H-KALKAALKIG-NH2)

>  <Target system>
C. glabrata NCPF 8018

>  <Modal MIC50>
> 128 µg/mL

$$$$
>  <Compound>
CC(C)C[C@H](NC(=O)[C@H](CCCCN)NC(=O)[C@H](CO)NC(=O)[C@H](CCCCN)NC(=O)[C@H](Cc1c[nH]c2ccccc12)NC(=O)[C@H](C)NC(=O)[C@H](CCCCN)NC(=O)[C@H](CCCCN)NC(=O)[C@H](CC(C)C)NC(=O)[C@H](Cc1ccccc1)NC(=O)[C@H](CO)NC(=O)CN)C(=O)N[C@@H](C)C(=O)N[C@@H](CCCCN)C(=O)N[C@@H](CCCCN)C(=O)N[C@@H](CC(C)C)C(=O)N[C@@H](CCCNC(=N)N)C(=O)N[C@@H](C)C(=O)N[C@@H](CCCCN)C(=O)NCC(N)=O [PS-PB-20a] (H-GSFLKKAWKSKLAKKLRAKG-NH2)

>  <Target system>
C. glabrata NCPF 8018

>  <Modal MIC50>
> 128 µg/mL

$$$$
